organism: Mus musculus; experiment: Protection index, ratio of TD50 to ED50 by MES test for albino mouse; type: functional
For each entry below, report its PI value.
Answers are plain numbers.

compound: COc1ccc(C2CC(Nc3nc4ccc(C)cc4s3)=NN2C(C)=O)cc1O (stereo unspecified)
PI: 1.99
--
compound: CC(=O)N1N=C(Nc2nc3ccccc3s2)CC1c1ccccc1 (stereo unspecified)
PI: 1.57
--
compound: Cc1ccc2nc(NC(=O)/C=C/c3ccc(O)cc3)sc2c1
PI: 1.42

Value sought for every listed compound: PI.
1. CC(=O)N1N=C(Nc2nc3ccc([N+](=O)[O-])cc3s2)CC1c1ccco1 (stereo unspecified)
2. CC(=O)N1N=C(Nc2nc3ccccc3s2)CC1c1ccc(O)cc1 (stereo unspecified)
3. CC(=O)N1N=C(Nc2nc3ccc(C)cc3s2)CC1c1ccco1 (stereo unspecified)

[1.29, 2.06, 1.51]

* * *

For each entry below, report its PI value.
organism: Mus musculus; assay: Protection index, ratio of TD50 to ED50 by MES test for albino mouse; type: functional

Record excerpt, results attached:
molecule: CC(=O)N1N=C(Nc2nc3ccccc3s2)CC1c1ccc(Cl)cc1 (configuration not stated)
PI: 1.73
--
molecule: COc1ccc(/C=C/C(=O)Nc2nc3ccc([N+](=O)[O-])cc3s2)cc1O
PI: 2.13

Value sought for every listed molecule: PI.
1. Cc1ccc2nc(NC(=O)/C=C/c3ccccc3)sc2c1
2. COc1ccc(C2CC(Nc3nc4ccc([N+](=O)[O-])cc4s3)=NN2C(C)=O)cc1O (configuration not stated)

1: 1.4; 2: 1.43

* * *

assay: Neurotoxicity in ip dosed albino mouse during 1 min by rotarod test; format: toxicity, organism-based; settings: in vivo
Kindly apply the following: Y if TD50 at 1 min is less than 500 µmol/kg, N in every other case.

Below, 3 molecules whose answers are already recorded.
molecule: Cc1ccc2nc(NC(=O)/C=C/c3ccc(O)cc3)sc2c1
category.label: Y
--
molecule: CC(=O)N1N=C(Nc2nc3ccc([N+](=O)[O-])cc3s2)CC1c1ccccc1 (configuration not stated)
category.label: Y
--
molecule: O=C(/C=C/c1ccc(Cl)cc1)Nc1nc2ccc([N+](=O)[O-])cc2s1
category.label: N

State whether 500 µmol/kg exceeds TD50 at 1 min recorded for COc1ccc(/C=C/C(=O)Nc2nc3ccc(Cl)cc3s2)cc1O . Y

State whether 500 µmol/kg exceeds TD50 at 1 min recorded for O=C(/C=C/c1ccc(O)cc1)Nc1nc2ccc(Cl)cc2s1 . Y

State whether 500 µmol/kg exceeds TD50 at 1 min recorded for COc1ccc(/C=C/C(=O)Nc2nc3ccc([N+](=O)[O-])cc3s2)cc1 . Y

* * *

test system: Mus musculus; experiment: Anticonvulsant activity in ip dosed albino mouse assessed as absence of hind limb tonic extension after 0.5 hrs by MES test; type: functional, Hindlimb; details: Mus musculus, albino, Hindlimb, ip, 0.5 h
For each entry below, report its ED50 value.
Lab note: write values as number then unit, every time.

compound: COc1ccc(C2CC(Nc3nc4ccccc4s3)=NN2C(C)=O)cc1O (stereo not drawn)
ED50: 259 µmol/kg

Value sought for every listed compound: ED50.
1. COc1ccc(/C=C/C(=O)Nc2nc3ccc([N+](=O)[O-])cc3s2)cc1O
2. CC(=O)N1N=C(Nc2nc3ccc([N+](=O)[O-])cc3s2)CC1c1ccco1 (stereo not drawn)

["372 µmol/kg", "274 µmol/kg"]

Value sought for every listed compound: ED50.
1. O=C(/C=C/c1ccco1)Nc1nc2ccc(Cl)cc2s1
2. COc1ccc(C2CC(Nc3nc4ccccc4s3)=NN2C(C)=O)cc1 (stereo not drawn)
3. O=C(/C=C/c1ccc(Cl)cc1)Nc1nc2ccccc2s1
4. CC(=O)N1N=C(Nc2nc3ccc(C)cc3s2)CC1c1ccc(Cl)cc1 (stereo not drawn)
5. COc1ccc(C2CC(Nc3nc4ccc([N+](=O)[O-])cc4s3)=NN2C(C)=O)cc1O (stereo not drawn)
6. COc1ccc(/C=C/C(=O)Nc2nc3ccc(Cl)cc3s2)cc1

544 µmol/kg
226 µmol/kg
367 µmol/kg
25.5 µmol/kg
178 µmol/kg
259 µmol/kg

Value sought for every listed compound: ED50.
1. COc1ccc(C2CC(Nc3nc4ccc(Cl)cc4s3)=NN2C(C)=O)cc1O (stereo not drawn)
2. COc1ccc(/C=C/C(=O)Nc2nc3ccc(C)cc3s2)cc1
3. CC(=O)N1N=C(Nc2nc3ccc([N+](=O)[O-])cc3s2)CC1c1ccc(O)cc1 (stereo not drawn)
4. O=C(/C=C/c1ccc(O)cc1)Nc1nc2ccccc2s1
5. CC(=O)N1N=C(Nc2nc3ccc(C)cc3s2)CC1c1ccc(O)cc1 (stereo not drawn)
6. CC(=O)N1N=C(Nc2nc3ccc(Cl)cc3s2)CC1c1ccco1 (stereo not drawn)

127 µmol/kg
209 µmol/kg
162 µmol/kg
517 µmol/kg
50.2 µmol/kg
212 µmol/kg
